Please respond with reported IC50 for every item in the list.
# Measured Target: Nonstructural protein 3 (Zika virus, UniProt A0A024AXB9)
# Sequence (A0A024AXB9 whole entry): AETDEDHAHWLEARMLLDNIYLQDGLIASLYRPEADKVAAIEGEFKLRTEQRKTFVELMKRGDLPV
# Test Details: Functional biochemical assay to identify treatments for viral infectious disease that targets Zika NS2B-NS3 protease. Utilizing a direct enzyme activity measurement method, reading the fluorescence intensity is used to characterize the relative potency of inhibitors as IC50.
# Set-up: species or system PRVABC59

Sample answers from the record:
Smiles Structure: Cc1cc(NC(=O)c2cc(Cl)cc3[nH]ncc23)ccc1N1CCNCC1
IC50: 6.48 µM
--
Smiles Structure: CS(=O)(=O)c1cc(NC(=O)OCc2ccccc2)cc(C(=O)Nc2cccc(CN)c2)c1
IC50: > 99.5 µM
--
Smiles Structure: N=C(N)Nc1ccc(OC(=O)Nc2ccccc2)cc1
IC50: > 100 µM
--
Smiles Structure: CCn1c(=O)c(N2CC3(CCCCC3)C[C@H]2CO)nc2ccccc21
IC50: > 99.5 µM
--
Smiles Structure: Cc1ccc(NC(=O)c2cc(Cl)cc(NC(=O)OCc3ccccc3)c2)cc1CN
IC50: 10.9 µM
--
Smiles Structure: NCc1cccc(NC(=O)[C@H]2COCC3(CCC3)O2)c1
IC50: > 99.5 µM
--
Smiles Structure: NCc1cccc(NC(=O)c2cc(Cl)cc(CN3CCOCC3)c2)c1
IC50: 52.9 µM
--
Smiles Structure: CC(=Cc1cccc(CN)c1)c1cc(Cl)cc(NC(=O)OCc2ccccc2)c1
IC50: 8.13 µM
--
Smiles Structure: Cc1[nH]c(-c2ccccc2)cc1C(=O)Nc1cc(-c2cccnc2)ccn1
IC50: > 25 µM
--
Smiles Structure: C[C@@]1(CNC(=O)c2cc(Cl)cc(NC(=O)OCc3ccccc3)c2)CNCCOC1
IC50: > 99.5 µM

Quick request: IC50 for each listed item, please.
1. CN1CCc2ncc(NC(=O)[C@@H](NC(=O)OCc3ccccc3)c3ccc(OCc4ccccc4)cc3)cc2C1
2. CN(C)C(=O)Nc1cccc([C@@H]2C[C@H]2c2cc(Cl)cc(NC(=O)OCc3ccccc3)c2)c1
3. Cn1cc(C(=O)N2CCC([C@H](NC(=O)OCc3ccccc3)C(=O)Nc3cccc(CN)c3)CC2)cn1
4. CC(C)(C)O[C@H]1CCCN(C(=O)Nc2ccc3c(c2)CNC3)C1
5. O=C(NCC1CCCCC1)[C@H]1CCCN1C(=O)Nc1ccc2c(c1)CNC2
6. Cc1cc(Cl)c(C)c(C(=O)O)c1NS(=O)(=O)c1ccc(Oc2ccccc2Cl)cc1
7. CCN(CC(=O)NC)C(=O)c1cc(Cl)ccc1NS(=O)(=O)c1ccc(Oc2ccccc2Cl)cc1

> 99.5 µM
> 99.5 µM
> 99.5 µM
> 25 µM
> 25 µM
93.8 µM
> 99.5 µM

Cited source for all entries: ChEMBL document CHEMBL5604062
